Each entry below carries its recorded IC50.
Target: Peptide deformylase (Mycobacterium tuberculosis)
Sequence (P9WIJ3 whole entry): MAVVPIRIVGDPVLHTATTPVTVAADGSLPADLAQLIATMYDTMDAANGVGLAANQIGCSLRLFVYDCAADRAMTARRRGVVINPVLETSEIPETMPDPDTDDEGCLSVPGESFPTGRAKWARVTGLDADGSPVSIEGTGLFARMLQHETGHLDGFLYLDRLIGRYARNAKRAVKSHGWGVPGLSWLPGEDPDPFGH
Your answer is read as nM, so omit the unit and give the number.

# Sample Smiles, Display Unit, IC50
data = [
    ("O=CN(O)C[C@@H](Cc1ccccc1)C(=O)N1CCC[C@H]1c1nc2ccccc2[nH]1", "nM", 68),
    ("CCC[C@H](CN(O)C=O)C(=O)N1CCC[C@H]1c1nc2ccccc2[nH]1", "nM", 24),
    ("O=CN(O)C[C@@H](Cc1ccccc1)C(=O)N1CCC[C@H]1c1nc2ccccc2o1", "nM", 161),
    ("CCC[C@H](CN(O)C=O)C(=O)N1CCC[C@H]1c1nc2ccccc2o1", "nM", 28),
]

# get_value(readout='IC50', item= `CCCC[C@H](C(=O)NO)C(=O)N1CCC[C@H]1c1nc2ccccc2o1` ) 49

# get_value(readout='IC50', item= `CCCCC[C@H](CN(O)C=O)C(=O)N1CCC[C@H]1c1nc2ccccc2[nH]1` ) 15

----------
Test system: Mycobacterium tuberculosis
Assay: Antitubercular activity against Mycobacterium tuberculosis H37Rv after 14 days by turbidimetric assay
Type: functional
Conditions: 336 h
Assay Endpoint: MIC (µg/mL)
Your answer is read as µg/mL, so omit the unit and give the number.

Reference set (5 entries):
# Compound, MIC (µg/mL)
records = [
    ("CCCC[C@H](CN(O)C=O)C(=O)N1CCC[C@H]1C(=O)Nc1ccccn1", 0.2),
    ("O=CN(O)C[C@@H](CC1CC1)C(=O)N1CCC[C@H]1c1nc2ccccc2o1", 0.2),
    ("CCCC[C@H](CN(O)C=O)C(=O)N1CCC[C@H]1c1nc2ccccc2[nH]1", 0.1),
    ("O=CN(O)C[C@@H](CC1CC1)C(=O)N1CCC[C@H]1c1nc2ccccc2[nH]1", 0.05),
    ("COc1c(N2CCNC(C)C2)c(F)cc2c(=O)c(C(=O)O)cn(C3CC3)c12 (stereo unspecified) [GATIFLOXACIN]", 0.07),
]

Lab note: next compound to report on.
# get_value(readout='MIC', item= `CCCC[C@H](CN(O)C=O)C(=O)N1CCC[C@H]1c1nc2ccccc2o1` ) 0.15

----------
Target: Peptide deformylase (Mycobacterium tuberculosis, UniProt P9WIJ3)
Sequence (P9WIJ3 whole entry): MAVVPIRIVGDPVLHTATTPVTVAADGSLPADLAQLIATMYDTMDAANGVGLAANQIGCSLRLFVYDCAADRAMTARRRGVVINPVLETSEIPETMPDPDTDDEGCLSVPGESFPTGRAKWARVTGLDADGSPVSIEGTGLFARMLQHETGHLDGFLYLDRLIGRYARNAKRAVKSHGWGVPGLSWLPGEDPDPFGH
Each entry below carries its recorded IC50.
Your answer is read as nM, so omit the unit and give the number.

Reference set (2 entries):
# Sample Smiles, IC50 / nM
measured = [
    ("CCCC[C@H](CN(O)C=O)C(=O)N1CCC[C@H]1c1nc2ccccc2[nH]1", 10),
    ("O=CN(O)C[C@@H](CC1CC1)C(=O)N1CCC[C@H]1c1nc2ccccc2[nH]1", 8),
]

Lab note: next molecule to report on.
# get_value(readout='IC50', item= `CCCC[C@H](C(=O)NO)C(=O)N1CCC[C@H]1c1nc2ccccc2[nH]1` ) 18

----------
// each record: one item and its pIC50 for Peptide deformylase (Mycobacterium tuberculosis)
Interpret pIC50 as the negative base-10 log of the concentration measured in mol/L.

Reference set (3 entries):
# Sample Smiles, Assayed System, pIC50
rows = [
    ("CCCC[C@H](CC(=O)O)C(=O)N1CCC[C@H]1c1nc2ccccc2[nH]1", "Peptide deformylase (Mycobacterium tuberculosis)", 6.69),
    ("CCCC[C@H](CC(=O)O)C(=O)N1CCC[C@H]1c1nc2ccccc2o1", "Peptide deformylase (Mycobacterium tuberculosis)", 6.10),
    ("CCCCC[C@H](CN(O)C=O)C(=O)N1CCC[C@H]1c1nc2ccccc2o1", "Peptide deformylase (Mycobacterium tuberculosis)", 7.89),
]

Lab note: next molecule to report on.
# get_value(readout='pIC50', item= `O=CN(O)C[C@@H](CC1CC1)C(=O)N1CCC[C@H]1c1nc2ccccc2o1` ) 7.68
